# ASSAY_COMMENT: Human HepG2 cell viability assay in 384 well format
# Assay type: toxicity, cell-based
# Design: dose 125 nL, time 70.5 hour; concentration not given beside the values
# TEST_CONDITIONS: HepG2 cells, read-out: Inhibition
OUTCOME_MEASURE: cytotoxicity at 70.5 h (%)
Respond numerically; units are % and should not be typed.

Any idea what its cytotoxicity at 70.5 h is? The compound is O=C([C@H]1COC[C@H]2CN(CC3CC3)C[C@H]21)N1CCOCC1
-2.68

Any idea what its cytotoxicity at 70.5 h is? The compound is COc1ccc(C(=O)NCC2CCCN(C3CCOCC3)C2)c(O)c1 (stereo unspecified)
23.3

Any idea what its cytotoxicity at 70.5 h is? The compound is CC(C)Cn1cnnc1C1CCCN1C(=O)c1ccc(F)cc1F (stereo unspecified)
-2.82

Any idea what its cytotoxicity at 70.5 h is? The compound is CCC1(CC)CC(=O)N(CC(O)c2cc(F)ccc2F)C1=O (stereo unspecified)
-4.77

Any idea what its cytotoxicity at 70.5 h is? The compound is O=C(NC1CC1)[C@@H]1CCO[C@@H]2CCN(C3CCOCC3)C[C@@H]21
-8.31

Any idea what its cytotoxicity at 70.5 h is? The compound is O=C(Nc1ccc(Cn2cccn2)cc1)N1CCC(CO)CC1
-5.76

Any idea what its cytotoxicity at 70.5 h is? The compound is CN(Cc1ccc2nsnc2c1)CC1(O)CCNC1 (stereo unspecified)
-5.93

Any idea what its cytotoxicity at 70.5 h is? The compound is CCc1sc(C(=O)Nc2cnn(CCN(C)C)c2)cc1C
-17.9

Any idea what its cytotoxicity at 70.5 h is? The compound is c1cc(-c2nc(CN3CCc4c(ncn4C4CC4)C3)cs2)cs1
-8.75

Any idea what its cytotoxicity at 70.5 h is? The compound is COCC1c2nnn(CC3CC3)c2CCN1C(=O)c1cnccn1 (stereo unspecified)
-13

Any idea what its cytotoxicity at 70.5 h is? The compound is COc1c(C2CCCN2C(=O)c2cnn(C)c2C2CC2)c(C)nn1C (stereo unspecified)
-2.81

Any idea what its cytotoxicity at 70.5 h is? The compound is CCCN1CCCn2nc(CNS(=O)(=O)c3ccc(F)cc3)cc2C1
4.7

Any idea what its cytotoxicity at 70.5 h is? The compound is COc1ncnc(N)c1CNCCOc1ccccc1Cl
-5.86

Any idea what its cytotoxicity at 70.5 h is? The compound is CC(C)CN(CC(=O)O)C(=O)c1ccc(F)cc1
4.28

Any idea what its cytotoxicity at 70.5 h is? The compound is COc1ccc(-n2cccn2)c(CN2CCC3(CCCN(C)C3=O)C2)c1 (stereo unspecified)
-9.91

Any idea what its cytotoxicity at 70.5 h is? The compound is O=S1(=O)CCC(N(Cc2nc3ccccc3o2)Cc2cccs2)C1 (stereo unspecified)
19.2

Any idea what its cytotoxicity at 70.5 h is? The compound is CCC(CO)Nc1nc(C(F)F)nc2ccccc12 (stereo unspecified)
-11.3

Any idea what its cytotoxicity at 70.5 h is? The compound is O=C(Cc1cccnc1)N1C[C@@H]2CC[C@H](C1)N(Cc1ccccc1)C2=O
-7.37

Any idea what its cytotoxicity at 70.5 h is? The compound is Cc1cnc(CN(C)C2CCN(CC(=O)Nc3c(C)n[nH]c3C)C2)o1 (stereo unspecified)
11.7

Any idea what its cytotoxicity at 70.5 h is? The compound is COc1c(C(N)=O)cn(C)c1-c1nc2cc(NC(C)=O)ccc2n1C
-14.7

Any idea what its cytotoxicity at 70.5 h is? The compound is CN(C)CCN1CC2(CCN(C(=O)c3cnccn3)CC2)OC1=O
-2.71

Any idea what its cytotoxicity at 70.5 h is? The compound is CCCc1cc(C(=O)N2C[C@H]3CCC[C@@]3(CO)C2)[nH]n1
-7.84

Any idea what its cytotoxicity at 70.5 h is? The compound is O=C(NC1CCN(c2ccccc2OC(F)F)C1)c1c[nH]nn1 (stereo unspecified)
-10.2

Any idea what its cytotoxicity at 70.5 h is? The compound is COCC(O)CN(C)C(=O)c1cccc(-c2csc(C)n2)c1 (stereo unspecified)
1.21

Any idea what its cytotoxicity at 70.5 h is? The compound is COc1ccc(-n2nc(C(C)=O)c(C(C)=O)c2C)cc1Cl
17.1

Any idea what its cytotoxicity at 70.5 h is? The compound is CC(C)NC(=O)c1cccc(NC(=O)CCCc2nc(C(C)C)no2)c1
5.5

Any idea what its cytotoxicity at 70.5 h is? The compound is CCS(=O)(=O)N1CCc2c(COCCN(C)C)cncc2C1
2.79

Any idea what its cytotoxicity at 70.5 h is? The compound is CC1c2ncc(Cn3cccn3)n2CCN1Cc1cccnc1 (stereo unspecified)
-1.36

Any idea what its cytotoxicity at 70.5 h is? The compound is NC(=O)CN1CCC(C(=O)NCC(O)c2cccc(F)c2)CC1 (stereo unspecified)
-10.5

Any idea what its cytotoxicity at 70.5 h is? The compound is OCC1(Cc2ccc(Cl)cc2)CCN(Cc2cccnc2)CC1
10.8

Any idea what its cytotoxicity at 70.5 h is? The compound is Cc1ccc(C(=O)O)cc1S(=O)(=O)Nc1nn(-c2ccccc2)cc1C
-0.199

Any idea what its cytotoxicity at 70.5 h is? The compound is O[C@@H]1CN(CC2=Cc3cc(Cl)ccc3OC2)CC[C@H]1N1CCCCCC1
-11

Any idea what its cytotoxicity at 70.5 h is? The compound is Cc1ccc(F)c(C(=O)N2C[C@@H](C(=O)O)[C@H](c3ccccc3)C2)c1Cl
1.54

Any idea what its cytotoxicity at 70.5 h is? The compound is CCCn1ccnc1CN1CCCC1c1cccc(-n2ccnc2)n1 (stereo unspecified)
11

Any idea what its cytotoxicity at 70.5 h is? The compound is Cn1cccc1C(=O)OCCNC(=O)c1ccccc1
-10.7

Any idea what its cytotoxicity at 70.5 h is? The compound is O=C(c1ccc2sccc2c1)N1CCC(C(=O)O)(n2ccnc2)CC1
3.47
